- target-of-assay: Mu-type opioid receptor (Cavia porcellus)
- Sequence (P97266 whole entry): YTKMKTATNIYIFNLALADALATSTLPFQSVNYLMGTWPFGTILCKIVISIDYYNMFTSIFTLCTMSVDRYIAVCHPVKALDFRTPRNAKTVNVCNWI
- assay-summary: Agonist activity at mu opioid receptor in Hartley guinea pig small intestine
measured-metric: IC50 (µM)
Answer in µM, number only, no unit symbol.

Missing value: IC50, Mu-type opioid receptor (Cavia porcellus), entry `N[C@@H](Cc1ccc(O)cc1)C(=O)N1Cc2ccccc2C[C@H]1C(=O)NCc1nc2ccccc2[nH]1` . Fill in?
4.22

---

- Organism: Rattus norvegicus
- assay-summary: Ratio of Ki for Sprague-Dawley rat mu opioid receptor to Ki for Sprague-Dawley rat delta opioid receptor
Cut-off 40 on Selectivity ratio: below means True, at or above means False.

In the record for `CN(C)[C@@H](Cc1c(F)cc(O)cc1F)C(=O)N1Cc2ccccc2C[C@H]1C(N)=O` , is Selectivity ratio less than 40?
True

Is it true that Selectivity ratio reported for `CN(C)[C@@H](Cc1ccc(O)cc1)C(=O)N1Cc2ccccc2C[C@H]1C(N)=O` is less than 40?
True

Determine whether this molecule shows Selectivity ratio lower than 40 (ties excluded): `CN(C)[C@@H](Cc1c(F)cc(O)cc1F)C(=O)N1Cc2ccccc2C[C@H]1C(=O)O`
True

Problem: For the molecule `CN(C)[C@@H](Cc1ccc(O)cc1)C(=O)N1Cc2ccccc2C[C@H]1C(=O)O` , is Selectivity ratio under 40?
True

# TODO verify Selectivity ratio < 40 strictly for this molecule: `Cc1cc(O)cc(C)c1C[C@@H](C(=O)N1Cc2ccccc2C[C@H]1C(N)=O)N(C)C`
False

Is Selectivity ratio of `Cc1cc(O)cc(C)c1C[C@@H](C(=O)N1Cc2ccccc2C[C@H]1C(=O)O)N(C)C` strictly below 40?
False

Dear colleague, could you confirm whether Selectivity ratio of `N[C@@H](Cc1ccc(O)cc1)C(=O)N1Cc2ccccc2C[C@H]1C(=O)N[C@@H](CC(=O)O)c1nc2ccccc2[nH]1` falls below 40? Thanks.
False

I'd appreciate it if you could check whether `N[C@@H](Cc1c(F)cc(O)cc1F)C(=O)N1Cc2ccccc2C[C@H]1C(=O)N[C@@H](CC(=O)O)c1nc2ccccc2[nH]1` has Selectivity ratio smaller than 40.
False

Find out if reported Selectivity ratio for `N[C@@H](Cc1c(F)cc(O)cc1F)C(=O)N1Cc2ccccc2C[C@H]1C(=O)NCc1nc2ccccc2[nH]1` is less than 40
False

Hello, I'm reviewing records and need to know if Selectivity ratio of `N[C@@H](Cc1ccc(O)cc1)C(=O)N1Cc2ccccc2C[C@H]1C(=O)NCc1nc2ccccc2[nH]1` is below 40. Could you check?
False

---

Can you tell me IC50 for the items I'm about to list?
- target-of-assay: Delta-type opioid receptor (Mus musculus, UniProt P32300)
- Sequence (P32300 whole entry): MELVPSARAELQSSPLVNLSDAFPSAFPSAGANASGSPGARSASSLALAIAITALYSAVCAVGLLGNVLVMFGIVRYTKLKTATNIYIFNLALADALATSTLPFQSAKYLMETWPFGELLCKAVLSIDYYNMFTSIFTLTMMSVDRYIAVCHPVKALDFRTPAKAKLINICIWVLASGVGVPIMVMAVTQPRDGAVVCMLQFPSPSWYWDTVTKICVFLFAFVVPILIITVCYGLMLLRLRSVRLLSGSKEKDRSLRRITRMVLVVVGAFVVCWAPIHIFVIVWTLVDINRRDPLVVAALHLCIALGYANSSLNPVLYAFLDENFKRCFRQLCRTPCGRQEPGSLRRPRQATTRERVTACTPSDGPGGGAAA
- assay-summary: Agonist activity at delta opioid receptor in mouse vas deference
All answers are understood in nM, so give the number only.

Given `N[C@@H](Cc1ccc(O)cc1)C(=O)N1Cc2ccccc2C[C@H]1C(=O)NCc1nc2ccccc2[nH]1` , state its recorded IC50.
50.1

Returns the measured IC50 for the input molecule. Input: `N[C@@H](Cc1c(F)cc(O)cc1F)C(=O)N1Cc2ccccc2C[C@H]1C(=O)NCc1nc2ccccc2[nH]1`
67.3
